# Tested on: 276233-004-R-J1-PDC KRAS spheroids with HUVEC/MSC, viability;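 further: cells exposed to agents for seven days before viability read; 100% = DMSO vehicle control wells and lower values mean fewer viable cells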
# EXPERIMENT: Anticancer human tumor 276233-004-R-J1-PDC patient-derived colon adenocarcinoma cell line growth inhibition [KRAS2]
# CONDITION CONTEXT: second compound 0.316 µM; first compound 1 µM; active compounds read low
READOUT LABEL: viability, T/C (%)
Just the number in %, nothing appended.

| MOLECULE | READOUT LABEL | UNITS OF MEASURE | RECORDED MEASUREMENT |
| --- | --- | --- | --- |
| CC(=O)OC12COC1CC(O)C1(C)C(=O)C(O)C3=C(C)C(OC(=O)C(O)C(NC(=O)OC(C)(C)C)c4ccccc4)CC(O)(C(OC(=O)c4ccccc4)C21)C3(C)C (centres undefined) + COc1cc2nc(C)nc(NC(C)c3cc(N)cc(C(F)(F)F)c3)c2cc1OC1CCOC1 | viability, T/C | % | 78.3 |
| CC(C)NCC(C(=O)N1CCN(c2ncnc3c2C(C)CC3O)CC1)c1ccc(Cl)cc1 (centres undefined) + CNCc1ccccc1-c1csc(C(C)Nc2nc(C)nc3cc(OC)c(OC)cc23)c1 | viability, T/C | % | 70.6 |
| CC1(C)CCC(CN2CCN(c3ccc(C(=O)NS(=O)(=O)c4ccc(NCC5CCOCC5)c([N+](=O)[O-])c4)c(Oc4cnc5[nH]ccc5c4)c3)CC2)=C(c2ccc(Cl)cc2)C1 + C=CC(=O)N1CCN(c2nc(=O)n(-c3c(C)ccnc3C(C)C)c3nc(-c4c(O)cccc4F)c(F)cc23)C(C)C1 | viability, T/C | % | 105 |

Query (molecule): CCN1CCN(Cc2ccc(Nc3ncc(F)c(-c4cc(F)c5nc(C)n(C(C)C)c5c4)n3)nc2)CC1 + CNCc1ccccc1-c1csc(C(C)Nc2nc(C)nc3cc(OC)c(OC)cc23)c1 ; field requested: viability, T/C
116

Entry CC(=O)OC12COC1CC(O)C1(C)C(=O)C(O)C3=C(C)C(OC(=O)C(O)C(NC(=O)OC(C)(C)C)c4ccccc4)CC(O)(C(OC(=O)c4ccccc4)C21)C3(C)C (centres undefined) + CC1OCC2(CCN(c3cnc(Sc4ccnc(N)c4Cl)c(N)n3)CC2)C1N please
66.9

Entry COc1cc2nccc(Oc3ccc(NC(=O)C4(C(=O)Nc5ccc(F)cc5)CC4)cc3)c2cc1OC + COc1cc2nc(C)nc(NC(C)c3cc(N)cc(C(F)(F)F)c3)c2cc1OC1CCOC1 please
99.7

Reference source: PubChem BioAssay AID1963873
